biological target: HiBit-WIZ fusion protein (Homo sapiens, UniProt O95785+Q96SW2); test: Quantification of WIZ protein levels in HiBit tag fusion protein assay (WIZ HiBit assay in 293T cells); format: cell-based; details: HEK-293T, DMSO-normalized, curve-fitted percentage of WIZ-HiBit remaining at 25 uM; 293T cells; read-out: WIZ Amax
Sequence (O95785 whole entry, the tested form may be a part): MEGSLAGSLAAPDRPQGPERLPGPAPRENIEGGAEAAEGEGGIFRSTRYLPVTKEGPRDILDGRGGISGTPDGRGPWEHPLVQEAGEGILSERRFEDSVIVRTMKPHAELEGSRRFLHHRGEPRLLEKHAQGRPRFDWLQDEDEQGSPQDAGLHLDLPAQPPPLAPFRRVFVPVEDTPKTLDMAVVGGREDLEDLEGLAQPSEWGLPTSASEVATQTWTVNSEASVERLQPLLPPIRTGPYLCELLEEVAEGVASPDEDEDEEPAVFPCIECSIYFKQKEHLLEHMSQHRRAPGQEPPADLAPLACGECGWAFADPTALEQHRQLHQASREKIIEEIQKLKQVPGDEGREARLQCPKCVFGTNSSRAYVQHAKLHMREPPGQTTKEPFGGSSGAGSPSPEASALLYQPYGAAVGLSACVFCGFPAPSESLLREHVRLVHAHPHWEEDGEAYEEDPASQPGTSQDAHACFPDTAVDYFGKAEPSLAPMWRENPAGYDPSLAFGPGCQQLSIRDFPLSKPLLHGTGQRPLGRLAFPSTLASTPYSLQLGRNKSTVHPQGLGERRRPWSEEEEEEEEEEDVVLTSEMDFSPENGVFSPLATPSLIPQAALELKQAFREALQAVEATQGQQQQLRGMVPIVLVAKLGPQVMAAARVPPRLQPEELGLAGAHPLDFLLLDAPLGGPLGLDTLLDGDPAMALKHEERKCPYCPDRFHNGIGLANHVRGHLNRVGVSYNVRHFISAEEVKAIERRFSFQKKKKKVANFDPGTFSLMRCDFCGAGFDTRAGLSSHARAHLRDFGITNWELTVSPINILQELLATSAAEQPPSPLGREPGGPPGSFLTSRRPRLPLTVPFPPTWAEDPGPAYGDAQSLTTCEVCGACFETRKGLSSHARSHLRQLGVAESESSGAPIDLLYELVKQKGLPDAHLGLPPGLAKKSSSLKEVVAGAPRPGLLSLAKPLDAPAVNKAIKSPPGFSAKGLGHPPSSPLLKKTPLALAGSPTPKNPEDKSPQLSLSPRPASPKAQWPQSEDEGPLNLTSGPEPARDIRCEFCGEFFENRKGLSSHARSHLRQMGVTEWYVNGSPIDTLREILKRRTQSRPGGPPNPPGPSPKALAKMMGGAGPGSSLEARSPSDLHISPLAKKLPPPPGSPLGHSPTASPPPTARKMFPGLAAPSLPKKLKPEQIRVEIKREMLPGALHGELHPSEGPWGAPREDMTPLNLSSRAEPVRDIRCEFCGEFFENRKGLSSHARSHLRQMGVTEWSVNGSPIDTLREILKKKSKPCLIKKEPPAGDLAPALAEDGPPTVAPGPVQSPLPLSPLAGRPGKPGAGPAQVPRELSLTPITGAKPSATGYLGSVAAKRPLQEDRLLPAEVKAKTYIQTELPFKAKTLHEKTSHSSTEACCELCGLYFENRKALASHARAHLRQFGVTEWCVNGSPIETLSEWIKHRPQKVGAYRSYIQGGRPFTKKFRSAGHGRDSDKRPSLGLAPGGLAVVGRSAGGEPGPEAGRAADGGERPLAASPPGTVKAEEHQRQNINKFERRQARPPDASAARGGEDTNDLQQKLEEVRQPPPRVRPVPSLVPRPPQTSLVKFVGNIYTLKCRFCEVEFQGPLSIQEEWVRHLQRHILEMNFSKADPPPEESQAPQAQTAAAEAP
Sequence (Q96SW2 whole entry, the tested form may be a part): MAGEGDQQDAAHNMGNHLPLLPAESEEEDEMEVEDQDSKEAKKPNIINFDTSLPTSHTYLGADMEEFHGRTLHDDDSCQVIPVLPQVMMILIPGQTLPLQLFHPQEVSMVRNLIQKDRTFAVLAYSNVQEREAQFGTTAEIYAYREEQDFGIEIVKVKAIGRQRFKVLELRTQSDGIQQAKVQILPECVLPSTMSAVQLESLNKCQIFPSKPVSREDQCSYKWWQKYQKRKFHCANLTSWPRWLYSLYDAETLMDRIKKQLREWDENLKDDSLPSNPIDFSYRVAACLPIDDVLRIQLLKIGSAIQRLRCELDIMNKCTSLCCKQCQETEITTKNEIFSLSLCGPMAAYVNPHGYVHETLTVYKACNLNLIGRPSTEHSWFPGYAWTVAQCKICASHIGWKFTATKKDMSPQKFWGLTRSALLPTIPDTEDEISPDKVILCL
Sequence (Q16531 whole entry partner, the tested form may be a part): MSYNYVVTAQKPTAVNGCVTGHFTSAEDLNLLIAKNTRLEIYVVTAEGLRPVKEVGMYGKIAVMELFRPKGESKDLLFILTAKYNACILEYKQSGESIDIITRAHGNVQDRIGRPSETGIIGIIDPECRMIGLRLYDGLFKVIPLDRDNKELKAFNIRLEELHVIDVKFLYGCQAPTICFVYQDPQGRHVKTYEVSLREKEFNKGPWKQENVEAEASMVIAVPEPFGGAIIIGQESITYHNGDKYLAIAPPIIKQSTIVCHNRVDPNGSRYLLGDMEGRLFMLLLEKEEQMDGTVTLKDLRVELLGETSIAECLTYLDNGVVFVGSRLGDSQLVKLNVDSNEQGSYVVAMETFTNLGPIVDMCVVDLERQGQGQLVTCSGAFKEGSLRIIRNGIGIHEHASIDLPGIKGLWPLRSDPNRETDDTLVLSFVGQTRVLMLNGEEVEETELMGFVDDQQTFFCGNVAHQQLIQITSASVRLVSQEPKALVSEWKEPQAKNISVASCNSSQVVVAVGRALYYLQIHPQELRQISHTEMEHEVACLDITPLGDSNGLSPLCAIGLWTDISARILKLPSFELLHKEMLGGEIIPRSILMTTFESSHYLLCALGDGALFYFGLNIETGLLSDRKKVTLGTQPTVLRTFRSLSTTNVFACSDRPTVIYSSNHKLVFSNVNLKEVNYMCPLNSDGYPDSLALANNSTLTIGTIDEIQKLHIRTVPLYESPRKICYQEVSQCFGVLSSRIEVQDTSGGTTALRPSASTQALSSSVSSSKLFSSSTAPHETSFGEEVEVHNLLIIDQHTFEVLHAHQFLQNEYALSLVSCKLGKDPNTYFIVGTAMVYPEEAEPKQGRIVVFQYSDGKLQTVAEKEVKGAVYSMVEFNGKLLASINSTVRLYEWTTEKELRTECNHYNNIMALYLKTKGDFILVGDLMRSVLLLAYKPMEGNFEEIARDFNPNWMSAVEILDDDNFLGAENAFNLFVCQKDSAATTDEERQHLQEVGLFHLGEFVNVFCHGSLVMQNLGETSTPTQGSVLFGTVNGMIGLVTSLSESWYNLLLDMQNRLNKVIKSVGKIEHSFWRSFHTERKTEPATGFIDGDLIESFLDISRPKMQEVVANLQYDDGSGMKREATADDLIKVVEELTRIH
endpoint: remaining activity at up to 25 µM (%)

# annotated cases, reported remaining activity at up to 25 µM shown
- compound: "CC(C)(C)OC(=O)N1CCC(c2ccccc2CN2CCCC[C@@H]2COc2ccc3c(c2)CN(C2CCC(=O)NC2=O)C3=O)CC1 (some centres unmarked)"
  measurementTarget: "HiBit-WIZ fusion protein (Homo sapiens, UniProt O95785+Q96SW2)"
  endpoint: "remaining activity at up to 25 µM"
  reportedValue: 12.4
- compound: "CCN(CC)c1ccc(CN2CCCC[C@@H]2COc2ccc3c(c2)CN(C2CCC(=O)NC2=O)C3=O)cn1 (some centres unmarked) [Compound I-50eb]"
  measurementTarget: "HiBit-WIZ fusion protein (Homo sapiens, UniProt O95785+Q96SW2)"
  endpoint: "remaining activity at up to 25 µM"
  reportedValue: 1.5
- compound: "O=C1CCC(N2Cc3cc(OC[C@H]4CCCCN4Cc4ccc(N5CCCCC5)cc4)ccc3C2=O)C(=O)N1 (some centres unmarked)"
  measurementTarget: "HiBit-WIZ fusion protein (Homo sapiens, UniProt O95785+Q96SW2)"
  endpoint: "remaining activity at up to 25 µM"
  reportedValue: 8.45
- compound: "CCN1CCC[C@@H](C(=O)N2CCCC[C@H]2COc2ccc3c(c2)CN(C2CCC(=O)NC2=O)C3=O)C1 (some centres unmarked) [Compound I-72it]"
  measurementTarget: "HiBit-WIZ fusion protein (Homo sapiens, UniProt O95785+Q96SW2)"
  endpoint: "remaining activity at up to 25 µM"
  reportedValue: 94.1
- compound: "O=C1CCC(N2Cc3cc(OC[C@@H]4CCCCN4C(=O)c4cc(-c5ccc(Br)cc5)on4)ccc3C2=O)C(=O)N1 (some centres unmarked) [Compound I-72ak]"
  measurementTarget: "HiBit-WIZ fusion protein (Homo sapiens, UniProt O95785+Q96SW2)"
  endpoint: "remaining activity at up to 25 µM"
  reportedValue: 21.1

I: COc1cc2[nH]nc(CN3CCCC[C@@H]3COc3ccc4c(c3)CN(C3CCC(=O)NC3=O)C4=O)c2cc1OCc1ccccc1 (some centres unmarked) [Compound I-50ev]
II: COc1ccc(CN2CCCC[C@@H]2COc2ccc3c(c2)CN(C2CCC(=O)NC2=O)C3=O)c(OC)c1 (some centres unmarked)
Enquiry: Select the item with the higher value of remaining activity at up to 25 µM from the options I and II listed. Select an item and report its label.
Return: II
